Target: BN/GRP receptor-positive MDA-MB-231 human breast cancer cells (Homo sapiens, UniProt P30550)
Construct: BN/GRP receptor-positive MDA-MB-231, MCF7, T47D human breast cancer, and PC3 human prostate cancer lines; intact cells
Test: Saturation binding assay on MDA-MB-231 cells
Settings: ~300,000 cells, 0.1-25 nM radiopeptide, 60 min, room temperature, n = 3-5 experiments, mean ± SD
Numbered stars: 1 amine (or outer) side, 2 acyl side, 3 side chain; on linkers, the order of the positions; unused ones are H or OH. Square brackets hold non-standard residues; d marks the D form. Peptide text beside a SMILES is read from it. * marks the point of attachment. DOTA = O=C(O)CN1CCN(CC(=O)O)CCN(CC(=O)*)CCN(CC(=O)O)CC1; Cha = N[C@@H](CC1CCCCC1)C(=O)O; X1 = O=C(CCC(=O)[*:2])CN[*:1]; Nle = CCCC[C@H](N)C(=O)O; Ahx = NCCCCCC(=O)O
Quick reference for Kd among some compounds
observation_type: Kd (nM)

>>> observed_measurement("CCCC[C@H](NC(=O)[C@H](Cc1c[nH]cn1)NC(=O)[C@H](CC1CCCCC1)NC(=O)[C@@H](NC(=O)[C@H](C)NC(=O)[C@H](Cc1c[nH]c2ccccc12)NC(=O)[C@H](CCC(N)=O)NC(=O)[C@H](CS)NC(=O)CNC(=O)CNC(=O)CCCCCNC(=O)CN1CCN(CC(=O)O)CCN(CC(=O)O)CCN(CC(=O)O)CC1)C(C)C)C(=O)N[C@@H](CCSC)C(N)=O [^68Ga-DOTA-Ahx-BN Cyclen, metal not drawn] ({DOTA-Ahx}-GGCQWAV[Cha]H[Nle]M-NH2)")
12.7
>>> observed_measurement("CCCC[C@H](NC(=O)[C@H](Cc1c[nH]cn1)NC(=O)[C@H](CC1CCCCC1)NC(=O)[C@@H](NC(=O)[C@H](C)NC(=O)[C@H](Cc1c[nH]c2ccccc12)NC(=O)[C@H](CCC(N)=O)NC(=O)[C@H](CS)NC(=O)CNC(=O)CNC(=O)CCC(=O)CNC(=O)CN1CCN(CC(=O)O)CCN(CC(=O)O)CCN(CC(=O)O)CC1)C(C)C)C(=O)N[C@@H](CCSC)C(N)=O [^68Ga-DOTA-ALA-BN Tris-, metal not drawn] ({DOTA}-[X1]GGCQWAV[Cha]H[Nle]M-NH2)")
14.7
>>> observed_measurement("CCCC[C@H](NC(=O)[C@H](Cc1c[nH]cn1)NC(=O)[C@H](CC1CCCCC1)NC(=O)[C@@H](NC(=O)[C@H](C)NC(=O)[C@H](Cc1c[nH]c2ccccc12)NC(=O)[C@H](CCC(N)=O)NC(=O)[C@H](CS)NC(=O)CNC(=O)CNC(=O)CCC(=O)CNC(=O)CN1CCN(CC(=O)O)CCN(CC(=O)O)CCN(CC(=O)O)CC1)C(C)C)C(=O)N[C@@H](CCSC)C(N)=O [^68Ga-DOTA-ALA-BN Cyclen, metal not drawn] ({DOTA}-[X1]GGCQWAV[Cha]H[Nle]M-NH2)")
15.1
>>> observed_measurement("CCCC[C@H](NC(=O)[C@H](Cc1c[nH]cn1)NC(=O)[C@H](CC1CCCCC1)NC(=O)[C@@H](NC(=O)[C@H](C)NC(=O)[C@H](Cc1c[nH]c2ccccc12)NC(=O)[C@H](CCC(N)=O)NC(=O)[C@H](CS)NC(=O)CNC(=O)CNC(=O)CCCCCNC(=O)CN1CCN(CC(=O)O)CCN(CC(=O)O)CCN(CC(=O)O)CC1)C(C)C)C(=O)N[C@@H](CCSC)C(N)=O [^68Ga-DOTA-Ahx-BN Tris-, metal not drawn] ({DOTA-Ahx}-GGCQWAV[Cha]H[Nle]M-NH2)")
11.6

Reference for the values: paper PMC6733935
